Test system: SK-MEL-5 melanoma
Assay Overview: NCI tumour cell line growth inhibition, 48 h
Outcome label depends on TGI relative to 10 µM: at/above gives Satisfied, below gives Not satisfied.

Data request: Assess whether reported TGI for `Cc1ccc(C(=O)NCc2ccccc2)cc1N=NN(C)C` sits at 10 µM or higher.
Data returned: Satisfied

Data request: Assess whether reported TGI for O=C1c2ccccc2OCC12OC21C=CC(Cl)=CC1 (centres undefined) sits at 10 µM or higher.
Data returned: Satisfied

Data request: Assess whether reported TGI for `COc1ccc(CNc2nc(NC3CCCCC3)nc(NC3CCCCC3)n2)cc1` sits at 10 µM or higher.
Data returned: Satisfied

Data request: Assess whether reported TGI for `CN(C)CCCNc1ccc2ncn3c4ccc(O)cc4c(=O)c1c23` sits at 10 µM or higher.
Data returned: Not satisfied

Data request: Assess whether reported TGI for `COc1cc2c3c(n(CCCN(CCO)CCO)c(=O)c2cc1OC)-c1cc2c(cc1C3=O)OCO2` sits at 10 µM or higher.
Data returned: Not satisfied

Data request: Assess whether reported TGI for COc1cc(/C=C/C(=O)C(C(=O)/C=C/c2ccc(OC(=O)CCNC34CC5CC(CC(C5)C3)C4)c(OC)c2)C(=O)CCNC23CC4CC(CC(C4)C2)C3)ccc1OC(=O)CCNC12CC3CC(CC(C3)C1)C2 (centres undefined) sits at 10 µM or higher.
Data returned: Satisfied

---

Parameter: TGI. Scope: all listed entries.
System: KM20L2 colon
Assay Overview: NCI tumour cell line growth inhibition, 48 h

C1COCCSC2=C(SCCO1)SC(=C1SC3=C(SCCOCCOCCS3)S1)S2 : > 100 µM
NC(=S)N/N=C1\CCCC\C1=C/c1ccccc1 : > 100 µM
Nc1c(S(=O)(=O)c2ccccc2)c2nc3ccccc3nc2n2c1nc1ccccc12 : > 100 µM

Data request: Recall the recorded TGI for CCC[CH2][Sn]1([CH2]CCC)[O]CC(COc2c(Cl)cc(Cl)cc2Cl)[O]1 (stereo unspecified) with KM20L2 colon and state it.
Data returned: 10.7 µM

Data request: Recall the recorded TGI for `CN(C)CCNC(=O)c1cccc2[nH]c(-c3ccccn3)nc12` with KM20L2 colon and state it.
Data returned: > 100 µM

Data request: Recall the recorded TGI for `O=C1c2ccccc2C(=O)N1C/C=N/NS(=O)(=O)c1ccc(Br)cc1` with KM20L2 colon and state it.
Data returned: > 100 µM

Data request: Recall the recorded TGI for CC1COS(=O)O1 (stereo unspecified) with KM20L2 colon and state it.
Data returned: > 100 µM

Data request: Recall the recorded TGI for `Cc1c2ccc3ccccc3c2c[n+]2ccccc12` with KM20L2 colon and state it.
Data returned: > 64.1 µM

Data request: Recall the recorded TGI for Cc1ccc(C)c(N2C(=O)C(=O)C(c3nc4ccccc4o3)/C(=N/N)C2=O)c1 (stereo unspecified) with KM20L2 colon and state it.
Data returned: > 100 µM

Data request: Recall the recorded TGI for `Cc1ccc2c(c1-c1ccccc1)C(=O)OC2` with KM20L2 colon and state it.
Data returned: 60.7 µM

Data request: Recall the recorded TGI for `COc1cc(/C=C/C(=O)Oc2ccccc2)ccc1C(=O)O/C=C/c1ccccc1` with KM20L2 colon and state it.
Data returned: > 100 µM

---

Parameter: TGI. Scope: all listed entries.
System: OVCAR-4 ovarian
Assay Overview: NCI tumour cell line growth inhibition, 48 h

O=C1c2ccc3c4ccccc4n(-c4ccccc4)c3c2C(=O)N1c1ccc(Cl)cc1 : > 100 µM
COc1ccc(/C=C/c2cnccn2)cc1OC : > 10 µM
O=P1(Cc2ccccc2)N(Cc2ccccc2)[C@@H]2CCCC[C@H]2N1Cc1ccccc1 : 15.2 µM
O=C1/C(=C/N2N=C(c3ccc4ccccc4c3)CC2c2ccccc2O)SC(=S)N1c1cccnc1 (stereo unspecified) : > 100 µM
O=C1CC(=O)NC(=NN2C(=O)/C(=C/c3ccc(Cl)c(Cl)c3)N=C2c2ccccc2)N1 : > 100 µM

Data request: State the recorded TGI for this entry: `O=C(N[C@@H](Cc1coc2ccccc12)B(O)O)[C@@H]1C[C@H]2CC[C@@H]1O2`
Data returned: > 100 µM

Data request: State the recorded TGI for this entry: `N#CC(C#N)=C1CCCOc2c1ccc1ccccc21`
Data returned: > 100 µM

Data request: State the recorded TGI for this entry: `Oc1c(Br)ccc2cccnc12`
Data returned: > 92.9 µM

Data request: State the recorded TGI for this entry: `COC(=O)c1c[nH]cc1CCCCc1c[nH]cc1C(=O)OC`
Data returned: > 100 µM

Data request: State the recorded TGI for this entry: `c1ccc2c(c1)OCCOCCOc1ccccc1OCCO2`
Data returned: > 100 µM

Data request: State the recorded TGI for this entry: `NCCCn1c2c(c3ccccc3c1=O)C(=O)c1ccccc1-2`
Data returned: 9.82 µM

---

System: SK-MEL-2 melanoma
Assay Overview: NCI tumour cell line growth inhibition, 48 h
Property Measured: TGI (µM)
Numbers only here, please. The scale is µM.

Worked cases, answers included:
C1=NC(N(Cc2ccccc2)Cc2ccccc2)N(Cc2ccccc2)N1 (stereo not drawn) : 31.8
N#Cc1cc2c(cc1Cl)Sc1nnc(Nc3ccccc3)n1S2(=O)=O : 8.26
COc1ccc(-c2nn(-c3cccc(Cl)c3)cc2-c2nc(N)[nH]c(=O)c2C#N)cc1 : 15.8

Turning now to a further record.
Data request: State the recorded TGI for this entry: `Cc1cc(NCCCCNc2ccnc3cc(Cl)ccc23)nc(Nc2ccc(C(=O)N3CCCCC3)cc2)n1`
Data returned: 3.9

---

Test system: IGROV1 ovarian
Assay Overview: NCI tumour cell line growth inhibition, 48 h
Parameter: TGI. Scope: all listed entries.

O=C(CCN1CCOCC1)Nc1cccc(-n2cc(-c3ccncc3)c(-c3ccc(Cl)c(O)c3)n2)c1 : 21.5 µM
O=C1CC(=O)NC(=NN2C(=O)/C(=C/c3ccc(Cl)c(Cl)c3)N=C2c2ccccc2)N1 : > 100 µM
O=C1C=C(Nc2ccc(S(=O)(=O)Nc3nccs3)cc2)c2ccccc2C1=O : > 100 µM
O=c1[nH]c2nc3ccccc3c(=O)n2/c1=C/c1cccs1 : > 100 µM
O=c1cc(NNc2cccc(Cl)c2)[nH]c(=O)[nH]1 : > 100 µM

Turning now to a further record.
Data request: State the recorded TGI for this entry: `CCOc1ccc(N=Cc2c3ccccc3nc3ccccc23)cc1`
Data returned: > 100 µM

---

Tested on: NCI-H226 lung
Assay Overview: NCI tumour cell line growth inhibition, 48 h
Parameter: log10 of TGI. Scope: all listed entries.
Hey, these are logged values: log10 of TGI, µM being the unit before logging.

Worked cases, answers included:
COc1ccc2c(c1)C(C)Cc1c(ncnc1-n1cnc3ccccc31)N2C (stereo not given) : 1.44
NCCCN(CCCN)CCc1cn(C(=O)c2ccccc2)cn1 : 1.42
CS(=O)(=O)N1CC(CCl)c2ccc(O)cc21 (stereo not given) : 0.83
O=C1C=C(Nc2ccc(S(=O)(=O)Nc3nccs3)cc2)c2ccccc2C1=O : 1.85
O=C(CBr)c1ccc2cc(Br)c3ccccc3c2c1 : 1.53

Turning now to a further record.
Data request: State the recorded log10 of TGI for this entry: `O=C(N[C@@H](Cc1coc2ccccc12)B(O)O)[C@@H]1C[C@H]2CC[C@@H]1O2`
Data returned: 0.44

---

System: HOP-92 NSCLC
Assay Overview: NCI tumour cell line growth inhibition, 48 h
Parameter: GI50. Scope: all listed entries.

Data request: State the recorded GI50 for this entry: CNC(C)[C@H]1CCC2C3CC=C4C(=O)[C@@H](NC(=O)C=C(C)C)CC[C@]4(C)C3CC[C@@]21C (stereo not given in full)
Data returned: 0.977 µM

Data request: State the recorded GI50 for this entry: `Oc1ccc(N=Nc2nccs2)c(O)c1`
Data returned: 3.34 µM

Data request: State the recorded GI50 for this entry: `COc1ccc(-c2cc(-c3ccc(Nc4ccnc5cc(Cl)ccc45)cc3)nc(N3CCOCC3)n2)cc1`
Data returned: 4.83 µM

Data request: State the recorded GI50 for this entry: `Clc1nc(Cl)c2ncn(Cc3ccccc3Cn3cnc4c(Cl)nc(Cl)nc43)c2n1`
Data returned: 1.9 µM

Data request: State the recorded GI50 for this entry: `CC1(C)N=C(N)N=C(N)N1c1cccc(OCCOc2cccc([N+](=O)[O-])c2)c1`
Data returned: 3.51 µM

---

Parameter: GI50. Scope: all listed entries.
Test system: MALME-3M melanoma
Assay Overview: NCI tumour cell line growth inhibition, 48 h

Worked cases, answers included:
CC1(C)N=C(N)N=C(N)N1c1cccc(OCCOc2cccc([N+](=O)[O-])c2)c1 : 7.54 µM
O=C(N/N=C/c1ccc(O)cc1O)c1cccnc1 : 5.16 µM
CN1C(NNC(=O)c2cccnc2)=NS(=O)(=O)c2cc(Cl)ccc21 : > 100 µM
Cc1ccc2[c](c1)[Sn]([c]1ccccc1)([c]1ccccc1)[c]1cc(C)ccc1N2C : 31.8 µM

Turning now to a further record.
Data request: State the recorded GI50 for this entry: `COC(=O)[C@]12CC[C@@H](C)[C@H](C)[C@@H]1C1=CC[C@@H]3[C@@]4(C)C(C=O)=C[C@@](C)(COC(=O)c5ccco5)[C@@H]4[C@H](O)C[C@@]3(C)[C@]1(C)CC2`
Data returned: 0.224 µM
